Assignment: determine reported residual activity for the given compounds.
# target.or.system: Activin receptor type-1B (Homo sapiens)
# condition.summary: at 10 µM
// return numeric value only (unit: %, not printed)

Data point: CC(C)n1cnc2/c(=N/c3cccc(Cl)c3)nc(NCCO)[nH]c21 ; residual activity = 120

Data point: Oc1ccc(Nc2nc(-c3ccc(Cl)cc3)cs2)cc1 ; residual activity = 110

Data point: Ic1cccc(CSc2nnc(-c3ccncc3)o2)c1 ; residual activity = 105

Data point: CO[C@H]1C[C@@H]2CC[C@@H](C)[C@@](O)(O2)C(=O)C(=O)N2CCCC[C@H]2C(=O)O[C@H]([C@H](C)C[C@@H]2CC[C@@H](O)[C@H](OC)C2)CC(=O)[C@H](C)/C=C(\C)[C@@H](O)[C@@H](OC)C(=O)[C@H](C)C[C@H](C)/C=C/C=C/C=C/1C ; residual activity = 110

Data point: CO[C@@H]1[C@H](N(C)C(=O)c2ccccc2)C[C@H]2O[C@]1(C)n1c3ccccc3c3c4c(c5c6ccccc6n2c5c31)C(=O)NC4 ; residual activity = 102

Data point: c1ccc(-c2n[nH]cc2-c2ccnc3ccccc23)nc1 ; residual activity = -4

Data point: COc1cc2ncnc(Nc3ccc(Oc4ccccc4)cc3)c2cc1OC ; residual activity = 112

Data point: O=C1NC(=O)/C(=C\c2ccc3nccnc3c2)S1 ; residual activity = 93

Data point: Nc1n[nH]c2nnc(-c3c(-c4ccccc4)nn4ccccc34)cc12 ; residual activity = 86

Data point: O=Nc1c(-c2c(O)[nH]c3ccccc23)[nH]c2ccccc12 ; residual activity = 72

Data point: O=C(Nc1cccc(Nc2cc(Nc3cccc(C(F)(F)F)c3)ncn2)c1)C1CC1 ; residual activity = 124

Data point: CC(C)n1cnc2c(NCc3ccccc3)nc(NCCCO)nc21 ; residual activity = 111

Data point: CC[n+]1c(/C=C/N(C)c2ccccc2)n(-c2ccccc2)c2ccc(-c3nc4ccccc4s3)cc21 ; residual activity = 87

Data point: CC(=O)c1ccc(N2CCOCC2)cc1O ; residual activity = 106

Data point: O=C1NC(=O)/C(=C/c2ccc3c(c2)OC(F)(F)O3)S1 ; residual activity = 102

Data point: Cc1cncc2cccc(S(=O)(=O)N3CCCN(C(=O)CN)C[C@H]3C)c12 ; residual activity = 86

Data point: CCN(CC)CCCCN1c2ccccc2Oc2ccc(Cl)cc21 ; residual activity = 100

Data point: Oc1n[nH]c2nnc(-c3c(-c4ccccc4)nn4ccccc34)cc12 ; residual activity = 115

Data point: COc1ccc(C(=O)Nc2sc3c(c2C(N)=O)CCCC3)cc1OC ; residual activity = 83

Data point: C[C@@H](N)[C@H]1CC[C@H](C(=O)Nc2ccncc2)CC1 ; residual activity = 63

Data point: Cc1cccc(-c2[nH]c(C(C)(C)C)nc2-c2ccc3c(c2)OCO3)n1 ; residual activity = -6

###

# target.or.system: Serine/threonine-protein kinase MRCK alpha (Homo sapiens) (UniProt Q5VT25)
# Sequence (Q5VT25 whole entry): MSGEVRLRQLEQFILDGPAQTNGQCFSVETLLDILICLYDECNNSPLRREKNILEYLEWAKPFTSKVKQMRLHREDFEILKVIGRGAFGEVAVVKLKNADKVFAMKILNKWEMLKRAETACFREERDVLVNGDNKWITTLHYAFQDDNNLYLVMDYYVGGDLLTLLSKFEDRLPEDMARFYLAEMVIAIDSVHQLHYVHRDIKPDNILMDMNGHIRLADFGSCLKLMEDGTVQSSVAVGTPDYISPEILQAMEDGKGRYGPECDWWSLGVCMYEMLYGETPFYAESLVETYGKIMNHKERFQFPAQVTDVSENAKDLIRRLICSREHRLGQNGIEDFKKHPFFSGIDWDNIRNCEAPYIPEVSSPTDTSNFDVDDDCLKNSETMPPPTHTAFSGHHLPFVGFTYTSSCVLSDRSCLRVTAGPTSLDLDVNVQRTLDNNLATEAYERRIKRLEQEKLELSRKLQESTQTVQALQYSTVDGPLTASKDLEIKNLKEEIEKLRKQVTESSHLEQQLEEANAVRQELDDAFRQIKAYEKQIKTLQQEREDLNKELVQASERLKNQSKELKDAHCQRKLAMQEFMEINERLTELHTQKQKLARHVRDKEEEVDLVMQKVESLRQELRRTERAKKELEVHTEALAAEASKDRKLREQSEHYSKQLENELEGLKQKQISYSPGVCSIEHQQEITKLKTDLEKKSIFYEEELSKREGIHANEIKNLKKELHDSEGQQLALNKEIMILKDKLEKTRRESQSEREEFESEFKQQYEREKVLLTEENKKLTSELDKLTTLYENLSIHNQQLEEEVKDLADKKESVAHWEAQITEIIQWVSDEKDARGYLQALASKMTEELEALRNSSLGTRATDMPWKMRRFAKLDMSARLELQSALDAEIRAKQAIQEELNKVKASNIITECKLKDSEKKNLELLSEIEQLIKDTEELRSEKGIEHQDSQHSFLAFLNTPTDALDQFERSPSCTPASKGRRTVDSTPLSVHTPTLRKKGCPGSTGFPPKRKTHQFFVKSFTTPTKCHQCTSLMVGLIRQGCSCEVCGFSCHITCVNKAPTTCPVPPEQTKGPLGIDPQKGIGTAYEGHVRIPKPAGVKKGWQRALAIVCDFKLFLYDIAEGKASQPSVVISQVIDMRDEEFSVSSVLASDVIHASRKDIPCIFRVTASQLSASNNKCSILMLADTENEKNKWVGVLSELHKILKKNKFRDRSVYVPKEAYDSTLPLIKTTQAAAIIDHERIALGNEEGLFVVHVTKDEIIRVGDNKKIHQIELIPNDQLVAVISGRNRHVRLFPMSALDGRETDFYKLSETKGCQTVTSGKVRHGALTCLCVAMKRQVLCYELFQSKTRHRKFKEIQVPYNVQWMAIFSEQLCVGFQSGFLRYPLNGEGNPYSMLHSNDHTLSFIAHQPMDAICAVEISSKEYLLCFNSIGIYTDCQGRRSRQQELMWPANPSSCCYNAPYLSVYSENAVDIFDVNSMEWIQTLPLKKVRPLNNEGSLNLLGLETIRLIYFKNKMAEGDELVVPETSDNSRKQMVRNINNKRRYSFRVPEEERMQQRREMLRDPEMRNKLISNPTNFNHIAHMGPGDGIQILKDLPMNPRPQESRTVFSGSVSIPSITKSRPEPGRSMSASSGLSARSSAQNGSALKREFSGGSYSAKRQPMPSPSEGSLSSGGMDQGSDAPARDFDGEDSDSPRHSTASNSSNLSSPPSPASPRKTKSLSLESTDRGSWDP
# condition.summary: at 1 µM
readout.type: residual activity (%)
// return numeric value only (unit: %, not printed)

Data point: COc1ccc(OC)c2c(=S)c3ccccc3[nH]c12 ; residual activity = 119

Data point: N#CCCc1ccc2c(c1)-c1[nH]c3ccc([N+](=O)[O-])cc3c1CC(=O)N2 ; residual activity = 35

Data point: Oc1ccc(Nc2nc(-c3ccc(Cl)cc3)cs2)cc1 ; residual activity = 118

Data point: Nc1n[nH]c2nnc(-c3c(-c4ccccc4)nn4ccccc34)cc12 ; residual activity = 111

Data point: Oc1c2ccccc2c2c3c(cccc13)N=N2 ; residual activity = 115

Data point: c1ccc(-c2n[nH]cc2-c2ccnc3ccccc23)nc1 ; residual activity = 102

Data point: CNc1cc2c(Nc3cccc(Br)c3)ncnc2cn1 ; residual activity = 98

Data point: O=[N+]([O-])c1ccc(-c2nc(-c3ccc(F)cc3)c(-c3ccncc3)[nH]2)cc1 ; residual activity = 126

Data point: CN(C)CCCn1cc(C2=C(c3c[nH]c4ccccc34)C(=O)NC2=O)c2ccccc21 ; residual activity = 115

Data point: Cc1ccc(NC2=CC(=O)c3sc(C)nc3C2=O)cc1 ; residual activity = 95

Data point: O=C1Nc2ccccc2/C1=C1/Nc2ccccc2/C1=N\OCCC(O)CO (stereo unspecified) ; residual activity = 111

###

# target.or.system: Tyrosine-protein kinase Fyn (Homo sapiens)
# condition.summary: at 1 µM
readout.type: residual activity (%)
// return numeric value only (unit: %, not printed)

Measured on Tyrosine-protein kinase Fyn (Homo sapiens), Cc1cncc2cccc(S(=O)(=O)N3CCCN(C(=O)CN)C[C@H]3C)c12 has a documented residual activity of 93

Measured on Tyrosine-protein kinase Fyn (Homo sapiens), c1ccc2c(-c3ccncc3)c[nH]c2c1 has a documented residual activity of 89

Measured on Tyrosine-protein kinase Fyn (Homo sapiens), O=C1NC(=O)c2c1c1c3ccccc3[nH]c1c1[nH]c3cc(Br)ccc3c21 has a documented residual activity of 85

Measured on Tyrosine-protein kinase Fyn (Homo sapiens), Cc1nc2cc3nc(-c4cccs4)cnc3cc2n1C has a documented residual activity of 103

Measured on Tyrosine-protein kinase Fyn (Homo sapiens), CC(C)n1cnc2c(NCc3ccccc3)nc(NCCCO)nc21 has a documented residual activity of 93

Measured on Tyrosine-protein kinase Fyn (Homo sapiens), N#C/C(=C(\N)Sc1ccc(N)cc1)c1ccccc1C(F)(F)F has a documented residual activity of 71

Measured on Tyrosine-protein kinase Fyn (Homo sapiens), Oc1c2ccccc2c2c3c(cccc13)N=N2 has a documented residual activity of 60

Measured on Tyrosine-protein kinase Fyn (Homo sapiens), Cc1cccc(-c2[nH]c(C(C)(C)C)nc2-c2ccc3c(c2)OCO3)n1 has a documented residual activity of 105

Measured on Tyrosine-protein kinase Fyn (Homo sapiens), CN(C)c1ccc(/C=C2\C(=O)Nc3ccccc32)cc1 has a documented residual activity of 83

Measured on Tyrosine-protein kinase Fyn (Homo sapiens), O=C1c2ccccc2-[n+]2ccc3c([nH]c4ccccc43)c21 has a documented residual activity of 77

Measured on Tyrosine-protein kinase Fyn (Homo sapiens), NC(=O)c1ccc2[nH]c(-c3ccc(Oc4ccc(Cl)cc4)cc3)nc2c1 has a documented residual activity of 78

Measured on Tyrosine-protein kinase Fyn (Homo sapiens), Nc1cccc(-c2cc3c(Oc4cccc(O)c4)ncnc3[nH]2)c1 has a documented residual activity of 0

Measured on Tyrosine-protein kinase Fyn (Homo sapiens), O=C1NC(=O)c2cc(Nc3ccc(F)cc3)c(Nc3ccc(F)cc3)cc21 has a documented residual activity of 68

Measured on Tyrosine-protein kinase Fyn (Homo sapiens), CC#CC(=O)Nc1cc2c(Nc3ccc(F)c(Cl)c3)ncnc2cn1 has a documented residual activity of 96

Measured on Tyrosine-protein kinase Fyn (Homo sapiens), COc1ccc(CNc2nc(N(CCO)CCO)nc3c2ncn3C(C)C)cc1 has a documented residual activity of 70

Measured on Tyrosine-protein kinase Fyn (Homo sapiens), COc1cc2ncnc(Nc3ccc(Oc4ccccc4)cc3)c2cc1OC has a documented residual activity of 2

Measured on Tyrosine-protein kinase Fyn (Homo sapiens), Cn1cnc2cc3c(Nc4cccc(Br)c4)ncnc3cc21 has a documented residual activity of 67

Measured on Tyrosine-protein kinase Fyn (Homo sapiens), Cc1cc(Nc2nc(-c3ccccc3)nc3ccccc23)n[nH]1 has a documented residual activity of 2

Measured on Tyrosine-protein kinase Fyn (Homo sapiens), CCOc1cc2ncnc(Nc3cccc(Br)c3)c2cc1OCC has a documented residual activity of 26

Measured on Tyrosine-protein kinase Fyn (Homo sapiens), CC[n+]1c(/C=C/N(C)c2ccccc2)n(-c2ccccc2)c2ccc(-c3nc4ccccc4s3)cc21 has a documented residual activity of 101

Measured on Tyrosine-protein kinase Fyn (Homo sapiens), O=c1cc(-c2cccc3c2Sc2ccccc2S3)oc(N2CCOCC2)c1 has a documented residual activity of 91

Measured on Tyrosine-protein kinase Fyn (Homo sapiens), O=C(Nc1cccc(Nc2cc(Nc3cccc(C(F)(F)F)c3)ncn2)c1)C1CC1 has a documented residual activity of 92

Measured on Tyrosine-protein kinase Fyn (Homo sapiens), c1ccc(-c2n[nH]c3c2oc2ccccc23)cc1 has a documented residual activity of 86

Measured on Tyrosine-protein kinase Fyn (Homo sapiens), CC(=O)O/N=C1\C(=C2\C(=O)Nc3cc(Br)ccc32)Nc2ccccc21 has a documented residual activity of 1

###

Assignment: determine reported residual activity for the given compounds.
# target.or.system: Cyclin-dependent kinase 5/CDK5 activator 1 (Homo sapiens) (UniProt Q00535+Q15078)
# Sequence (Q00535 whole entry): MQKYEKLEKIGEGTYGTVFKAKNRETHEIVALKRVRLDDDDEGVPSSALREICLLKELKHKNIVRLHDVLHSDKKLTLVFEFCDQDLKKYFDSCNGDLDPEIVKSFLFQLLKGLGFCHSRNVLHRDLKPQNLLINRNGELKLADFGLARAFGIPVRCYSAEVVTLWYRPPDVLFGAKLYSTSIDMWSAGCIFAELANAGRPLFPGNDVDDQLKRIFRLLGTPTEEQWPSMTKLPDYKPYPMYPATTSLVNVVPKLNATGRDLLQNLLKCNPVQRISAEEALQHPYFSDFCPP
# Sequence (Q15078 99-307 partner limits assumed): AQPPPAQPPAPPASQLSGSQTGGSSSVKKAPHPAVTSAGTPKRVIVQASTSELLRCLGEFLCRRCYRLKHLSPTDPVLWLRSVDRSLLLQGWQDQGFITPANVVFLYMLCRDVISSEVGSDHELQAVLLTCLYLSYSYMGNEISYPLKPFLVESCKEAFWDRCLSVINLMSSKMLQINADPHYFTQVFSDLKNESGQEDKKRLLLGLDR
# condition.summary: at 10 µM

Measured on Cyclin-dependent kinase 5/CDK5 activator 1 (Homo sapiens) (UniProt Q00535+Q15078), COc1ccc(S(=O)(=O)N(CCO)c2ccccc2CN(C)C/C=C/c2ccc(Cl)cc2)cc1 has a documented residual activity of 97%

Measured on Cyclin-dependent kinase 5/CDK5 activator 1 (Homo sapiens) (UniProt Q00535+Q15078), O=C1NC(=O)c2c1c1c3ccccc3[nH]c1c1[nH]c3cc(Br)ccc3c21 has a documented residual activity of 68%

Measured on Cyclin-dependent kinase 5/CDK5 activator 1 (Homo sapiens) (UniProt Q00535+Q15078), COc1cccc(-c2cc(=O)c3ccccc3o2)c1N has a documented residual activity of 89%

Measured on Cyclin-dependent kinase 5/CDK5 activator 1 (Homo sapiens) (UniProt Q00535+Q15078), O=C(O)c1ccc2c3c1cccc3c(=O)n1c3ccccc3nc21 has a documented residual activity of 57%

Measured on Cyclin-dependent kinase 5/CDK5 activator 1 (Homo sapiens) (UniProt Q00535+Q15078), COc1ccc(CNc2nc(N(CCO)CCO)nc3c2ncn3C(C)C)cc1 has a documented residual activity of 2%

Measured on Cyclin-dependent kinase 5/CDK5 activator 1 (Homo sapiens) (UniProt Q00535+Q15078), COc1cc2ncc(-c3ccccc3)nc2cc1OC has a documented residual activity of 93%

Measured on Cyclin-dependent kinase 5/CDK5 activator 1 (Homo sapiens) (UniProt Q00535+Q15078), O=C(Nc1cccc(Nc2cc(Nc3cccc(C(F)(F)F)c3)ncn2)c1)C1CC1 has a documented residual activity of 57%

Measured on Cyclin-dependent kinase 5/CDK5 activator 1 (Homo sapiens) (UniProt Q00535+Q15078), O=C1NC(=O)/C(=C/c2ccc3c(c2)OC(F)(F)O3)S1 has a documented residual activity of 94%

Measured on Cyclin-dependent kinase 5/CDK5 activator 1 (Homo sapiens) (UniProt Q00535+Q15078), Cc1cc2ncc(-c3ccccc3)nc2cc1C has a documented residual activity of 110%

Measured on Cyclin-dependent kinase 5/CDK5 activator 1 (Homo sapiens) (UniProt Q00535+Q15078), CN(C)c1ccc(/C=C2\C(=O)Nc3ccccc32)cc1 has a documented residual activity of 96%

Measured on Cyclin-dependent kinase 5/CDK5 activator 1 (Homo sapiens) (UniProt Q00535+Q15078), Cc1ccc(NC2=CC(=O)c3sc(C)nc3C2=O)cc1 has a documented residual activity of 87%
